Target: T1, full-length beta-Catenin (Uniprot ID P35222) (Homo sapiens (Human), UniProt P35222 1-781)
T1 construct: also called bCat; B-Catenin
T1 sequence: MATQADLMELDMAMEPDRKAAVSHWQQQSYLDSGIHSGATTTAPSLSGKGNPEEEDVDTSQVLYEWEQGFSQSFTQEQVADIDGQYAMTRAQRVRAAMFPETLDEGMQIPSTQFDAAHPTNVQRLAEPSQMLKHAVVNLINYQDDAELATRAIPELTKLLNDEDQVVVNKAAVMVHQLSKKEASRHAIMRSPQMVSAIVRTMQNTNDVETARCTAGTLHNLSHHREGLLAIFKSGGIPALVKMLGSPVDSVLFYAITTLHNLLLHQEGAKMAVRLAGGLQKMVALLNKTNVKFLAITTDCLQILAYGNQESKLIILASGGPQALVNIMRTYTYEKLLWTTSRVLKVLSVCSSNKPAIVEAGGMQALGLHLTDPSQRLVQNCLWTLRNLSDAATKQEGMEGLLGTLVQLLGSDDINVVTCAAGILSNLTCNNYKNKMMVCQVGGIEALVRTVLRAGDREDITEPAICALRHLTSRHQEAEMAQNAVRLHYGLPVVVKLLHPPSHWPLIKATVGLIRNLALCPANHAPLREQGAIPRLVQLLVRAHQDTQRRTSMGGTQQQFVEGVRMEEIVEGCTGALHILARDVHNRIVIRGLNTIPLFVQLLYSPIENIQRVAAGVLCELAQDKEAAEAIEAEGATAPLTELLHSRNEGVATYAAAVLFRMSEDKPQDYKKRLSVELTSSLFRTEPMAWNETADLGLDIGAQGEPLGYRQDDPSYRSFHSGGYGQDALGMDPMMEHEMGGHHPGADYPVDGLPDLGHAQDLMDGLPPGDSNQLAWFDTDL
Assay: fluorescence polarization competition; full-length beta-catenin, competitor 5FAM-TCF4(10-53) probe
Starred links: 1 amine or outer side, 2 acyl side, 3 side chain; linkers in the order of their positions; H or OH if unused. Positions of bridges follow the written chain, without caps; N, C: chain ends. Non-standard residues stand in square brackets, D forms with d. Primed or numbered codes have the meaning given here. B5(21) = 2-amino-2-(pent-4-en-1-yl)hept-6-enoic acid, bis(4-pentenyl)glycine (stitching residue), C=CCCCC(CCCC=C)(N[*:1])C(=O)[*:2]; B5(6) = 2-amino-2-(pent-4-en-1-yl)hept-6-enoic acid (bis(4-pentenyl)glycine), stitching residue, C=CCCCC(CCCC=C)(N[*:1])C(=O)[*:2]; Phe(3-F) = N[C@@H](Cc1cccc(F)c1)C(=O)O; Phe(4-F) = N[C@@H](Cc1ccc(F)cc1)C(=O)O; Bta = N[C@@H](Cc1csc2ccccc12)C(=O)O; αAllylPro = C=CC[C@@]1(C(=O)O)CCCN1; S8 = C=CCCCCCC[C@](C)(N)C(=O)O
EXPERIMENTAL ENDPOINT: IC50 (nM)

[
  {
    "BINDER": "Ac-[αAllylPro]DI[B5(6)]DDAAFN[S8]F[Bta]Q-NH2 (staple 1-4, 4-11; also: staple isomer composition: later-eluting HPLC peak, Stapled peptide; later-eluting HPLC peak (staple isomer composition)) [I-468]",
    "RECORDED VALUE": 27
  },
  {
    "BINDER": "Ac-[αAllylPro]DA[B5(21)]DEAA[Phe(4-F)]N[S8]F[Bta]Q-NH2 (staple 1-4, 4-11, Stapled peptide composition) [I-455]",
    "RECORDED VALUE": 83.5
  },
  {
    "BINDER": "Ac-[αAllylPro]DA[B5(21)]DEAA[Phe(3-F)]N[S8]F[Bta]Q-NH2 (staple 1-4, 4-11, Stapled peptide composition) [I-454]",
    "RECORDED VALUE": 125
  },
  {
    "BINDER": "Ac-[αAllylPro]DI[B5(6)]DDAAFN[S8]F[Bta]Q-NH2 (staple 1-4, 4-11; also: staple isomer composition: earlier-eluting HPLC peak, Stapled peptide; earlier-eluting HPLC peak (staple isomer composition)) [I-467]",
    "RECORDED VALUE": 44
  }
]
